Numbers sourced from patent US20200048328A1.

target: T1, mouse serum albumin (mouse, UniProt P07724 25-608); assay: direct binding ELISA, albumin coated
T1 construct: also called MSA; MuSA
T1 sequence (P07724 25-608 limits assumed): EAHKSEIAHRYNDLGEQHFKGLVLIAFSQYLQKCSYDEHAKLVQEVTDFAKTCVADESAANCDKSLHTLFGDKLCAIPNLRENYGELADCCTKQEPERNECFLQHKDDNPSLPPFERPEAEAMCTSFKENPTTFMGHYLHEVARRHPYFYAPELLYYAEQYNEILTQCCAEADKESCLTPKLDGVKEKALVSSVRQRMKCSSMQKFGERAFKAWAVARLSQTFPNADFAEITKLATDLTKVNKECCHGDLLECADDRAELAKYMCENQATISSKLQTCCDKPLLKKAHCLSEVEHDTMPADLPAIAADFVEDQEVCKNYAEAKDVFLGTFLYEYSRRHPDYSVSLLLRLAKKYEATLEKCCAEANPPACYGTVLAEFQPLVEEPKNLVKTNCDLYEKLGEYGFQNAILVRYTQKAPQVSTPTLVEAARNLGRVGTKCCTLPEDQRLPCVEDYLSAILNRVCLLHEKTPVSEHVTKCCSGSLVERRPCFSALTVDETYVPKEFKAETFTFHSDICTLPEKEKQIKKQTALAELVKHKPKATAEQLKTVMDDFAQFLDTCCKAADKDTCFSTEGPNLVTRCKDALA
recorded-metric: EC50 (nM)
State just the number; it will be interpreted in nM.

Examples from the recorded data:
PCSK9-PKE2 tandem 4472_F06 (designed binder, The real molecule is ONE polypeptide: PCSK9 domain, undisclosed linker 'G' (a code letter, not the residue), PKE2 domain. It is given here as two chains because the linker letters are unknown., not shown: The inter-domain linker) PCSK9 domain: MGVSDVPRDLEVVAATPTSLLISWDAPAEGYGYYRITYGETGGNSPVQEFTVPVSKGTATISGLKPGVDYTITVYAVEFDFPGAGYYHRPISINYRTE PKE2 domain: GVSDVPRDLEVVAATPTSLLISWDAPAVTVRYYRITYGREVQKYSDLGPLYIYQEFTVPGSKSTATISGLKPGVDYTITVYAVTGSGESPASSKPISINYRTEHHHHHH; 11.3
PCSK9-PKE2 tandem 4472_B05 (designed binder, not shown: small tags and cut ends, The two parts are one polypeptide in the real molecule, joined by the undisclosed linker O; they are given here as separate chains.) PCSK9 10Fn3: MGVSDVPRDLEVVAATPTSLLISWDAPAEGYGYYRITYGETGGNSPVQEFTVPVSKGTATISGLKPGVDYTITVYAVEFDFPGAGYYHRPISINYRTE PKE2 10Fn3: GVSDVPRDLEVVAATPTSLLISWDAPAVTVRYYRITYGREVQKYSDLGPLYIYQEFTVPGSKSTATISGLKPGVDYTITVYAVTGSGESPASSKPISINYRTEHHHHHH; 9.3
PCSK9-PKE2 tandem 4472_B03 (designed binder, not shown: The inter-domain linker; In the real molecule the two parts below are one polypeptide joined by this linker) PCSK9 domain: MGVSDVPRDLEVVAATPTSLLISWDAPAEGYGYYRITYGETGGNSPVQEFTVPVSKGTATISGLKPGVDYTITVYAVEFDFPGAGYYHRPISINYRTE PKE2 domain: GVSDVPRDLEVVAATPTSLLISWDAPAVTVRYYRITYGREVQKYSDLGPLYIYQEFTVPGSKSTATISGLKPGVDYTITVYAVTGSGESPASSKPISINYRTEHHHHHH; 14.8
PCSK9-PKE2 tandem 4472_H11 (designed binder, not shown: small tags and cut ends, The two parts are one polypeptide in the real molecule, joined by the undisclosed linker P (a code, not a proline); they are given here as separate chains.) PCSK9 10Fn3: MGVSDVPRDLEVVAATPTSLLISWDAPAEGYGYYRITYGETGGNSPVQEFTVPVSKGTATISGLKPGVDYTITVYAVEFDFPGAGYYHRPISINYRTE PKE2 10Fn3: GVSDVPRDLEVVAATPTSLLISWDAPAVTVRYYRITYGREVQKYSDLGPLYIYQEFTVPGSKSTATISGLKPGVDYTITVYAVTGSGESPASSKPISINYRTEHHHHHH; 13.2
PCSK9-PKE2 tandem 4472_D08 (designed binder, not shown: small tags and cut ends, The two parts are one polypeptide in the real molecule, joined by the undisclosed linker N; they are given here as separate chains.) PCSK9 10Fn3: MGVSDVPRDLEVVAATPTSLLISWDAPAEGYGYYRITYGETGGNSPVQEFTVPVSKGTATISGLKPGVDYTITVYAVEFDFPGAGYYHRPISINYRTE PKE2 10Fn3: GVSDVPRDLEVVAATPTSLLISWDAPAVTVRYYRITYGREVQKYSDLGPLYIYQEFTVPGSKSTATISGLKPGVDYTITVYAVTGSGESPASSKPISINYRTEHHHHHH; 9.5
PCSK9-PKE2 tandem 4472_E09 (designed binder, In the real molecule the two parts given here are one polypeptide, joined by the undisclosed linker A. They are written as two chains only because the linker has no letters., not shown: Linker 'A' joining ...NYRTE of the PCSK9 domain to GVSDV... of the PKE2 domain) PCSK9 domain: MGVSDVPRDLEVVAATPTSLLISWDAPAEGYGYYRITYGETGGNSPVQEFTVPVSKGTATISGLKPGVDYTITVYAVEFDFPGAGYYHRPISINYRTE PKE2 domain: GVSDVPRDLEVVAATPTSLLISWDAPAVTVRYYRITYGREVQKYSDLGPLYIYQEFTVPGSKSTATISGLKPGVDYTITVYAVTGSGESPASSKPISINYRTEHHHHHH; 7
PCSK9-PKE2 tandem 4472_B10 (designed binder, The real molecule is ONE polypeptide: PCSK9 domain, undisclosed linker J, PKE2 domain. It is given here as two chains because the linker letters are unknown., not shown: The inter-domain linker) PCSK9 domain: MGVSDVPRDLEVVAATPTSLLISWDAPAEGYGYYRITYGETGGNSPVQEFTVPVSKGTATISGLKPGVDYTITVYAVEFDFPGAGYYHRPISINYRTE PKE2 domain: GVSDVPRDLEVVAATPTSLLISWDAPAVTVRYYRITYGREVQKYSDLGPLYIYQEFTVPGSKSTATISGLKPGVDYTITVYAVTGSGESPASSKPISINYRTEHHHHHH; 10.9

Enquiry: Could you share which EC50 value was measured for PCSK9-PKE2 tandem 4472_A06 (designed binder, not shown: small tags and cut ends, The two parts are one polypeptide in the real molecule, joined by the undisclosed linker M; they are given here as separate chains.) PCSK9 10Fn3: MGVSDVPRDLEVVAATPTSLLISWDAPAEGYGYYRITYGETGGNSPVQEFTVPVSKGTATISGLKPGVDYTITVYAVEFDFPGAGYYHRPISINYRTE PKE2 10Fn3: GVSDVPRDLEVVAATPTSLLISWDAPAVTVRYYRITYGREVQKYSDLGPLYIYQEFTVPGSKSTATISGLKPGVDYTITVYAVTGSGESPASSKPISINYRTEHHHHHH ?
Return: 8.6
